- Tested on: PBMC
- Format: cell-based, human
// % Inhibition by HLA-DR blocking Ab lookup, one value per entry
quantity_kind: % Inhibition by HLA-DR blocking Ab (%)

{"columns": ["seq", "obs_value"],
 "data": [
  ["PKYVKSTKLRLATG [IAV-1, reference compound]", 100],
  ["RIDFHWLMLNPNDTVTFS [Peptide H7N9-1]", 46],
  ["IVYWKQWLSLKNLTQ [Peptide H7N9-14A]", 100]
]}

* * *

- System: PBMC
- Type: cell-based, human
A collection of sequences and their measured % Inhibition by HLA-DR blocking Ab

{"columns": ["seq", "% Inhibition by HLA-DR blocking Ab, %"],
 "data": [
  ["PRYVKQRSLLLATG [Peptide H7N9-13]", 100],
  ["YAEMKWLLSNTDNAAFPQ [Peptide H7N9-2]", 100],
  ["PRYVKQSTLKLATG [IAV-2, reference compound]", 73],
  ["AANIIGILHLILWILDRL [Peptide H7N9-10]", 68],
  ["PKYVKSNRLVLATG [IAV-4, reference compound]", 96],
  ["QITFMQALQLLLEVE [Peptide H7N9-12]", 100],
  ["AVKLYKKLKREMTFHGA [Peptide H7N9-9]", 100],
  ["DKLYERVKRQLRENAEED [Peptide H7N9-8]", 89],
  ["PRYVKQNTLKLATG [IAV-3, reference compound]", 78],
  ["QPEWFRNVLSIAPIMFSNK [Peptide H7N9-4]", 100],
  ["KGILGFVFTLTVPSERGLQ [Peptide H7N9-3]", 97]
]}
